FYI, the data here is from ChEMBL document CHEMBL4382236.

biological target: PAC1-PAC2 complex (Homo sapiens) (UniProt O95456+Q969U7); experiment: Inhibition of N-terminal mKG-labeled PAC1/C-terminal mKG-labeled PAC2 (unknown origin) protein-protein interaction at 0.1 uM preincubated for 1 hr with protein followed by another protein addition and measured after 17 hrs by fluorescence based protein-fragment complementation assay relative to control; format: protein-complex assay
Reported inhibition values follow for various molecules
Measured endpoint: inhibition

{"columns": ["Item smiles", "Value"],
 "data": [
  ["COc1c(C)c(OC(=O)c2c(C)c(C)c(OC[C@@H]3OC(=O)O[C@H]3COc3c(C)c(C)c(C(=O)Oc4c(C)c(C)c(C(=O)O)c(OC)c4C)c(OC)c3C)c(C)c2OC)c(C)c(C)c1C(=O)O", "15%"],
  ["COCOC(=O)c1c(C)c(C)c(OC(=O)c2c(C)c(C)c(OCc3cccc(COc4c(C)c(C)c(C(=O)Oc5c(C)c(C)c(C(=O)OCOC)c(OC)c5C)c(OC)c4C)c3Br)c(C)c2OC)c(C)c1OC", "3%"],
  ["COc1c(C)c(OC(=O)c2c(C)c(C)c(OC(=O)c3c(C)c(C(=O)Oc4c(C)c(C)c(C(=O)Oc5c(C)c(C)c(C(=O)O)c(OC)c5C)c(OC)c4C)c(OC)c(C)c3OC)c(C)c2OC)c(C)c(C)c1C(=O)O", "9%"],
  ["COc1c(C)c(OC(=O)c2ccc(Oc3cccc(C(=O)Oc4c(C)c(C)c(C(=O)Oc5c(C)c(C)c(C(=O)O)c(OC)c5C)c(OC)c4C)c3C)cc2)c(C)c(C)c1C(=O)O", "15%"],
  ["COc1c(C)c(OC(=O)c2c(C)c(C)c(OC(=O)c3c(C)c(C(=O)Oc4c(C)c(C)c(C(=O)Oc5c(C)c(C)c(C(=O)O)c(OC)c5C)c(OC)c4C)c(O)c(C)c3O)c(C)c2OC)c(C)c(C)c1C(=O)O", "21%"]
]}

###

Target: PAC1-PAC2 complex (Homo sapiens, UniProt O95456+Q969U7)
Sequence (O95456 whole entry): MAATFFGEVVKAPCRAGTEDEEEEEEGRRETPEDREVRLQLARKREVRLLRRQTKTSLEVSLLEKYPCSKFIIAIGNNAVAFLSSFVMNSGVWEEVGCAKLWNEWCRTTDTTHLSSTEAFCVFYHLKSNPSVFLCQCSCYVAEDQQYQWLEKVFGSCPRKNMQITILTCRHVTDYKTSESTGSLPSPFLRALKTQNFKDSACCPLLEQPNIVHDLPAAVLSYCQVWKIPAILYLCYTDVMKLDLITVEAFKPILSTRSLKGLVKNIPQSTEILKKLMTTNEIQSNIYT
Sequence (Q969U7 whole entry): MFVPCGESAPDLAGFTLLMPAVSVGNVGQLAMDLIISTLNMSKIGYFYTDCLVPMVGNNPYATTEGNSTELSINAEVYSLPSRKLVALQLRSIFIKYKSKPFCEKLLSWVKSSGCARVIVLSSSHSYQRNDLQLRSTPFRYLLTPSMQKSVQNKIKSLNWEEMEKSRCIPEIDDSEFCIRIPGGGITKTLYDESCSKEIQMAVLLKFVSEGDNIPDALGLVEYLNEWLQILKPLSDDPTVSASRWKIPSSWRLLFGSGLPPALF
Assay: Inhibition of PAC1/PAC2 heterodimer (unknown origin) protein-protein interaction
Measured endpoint: IC50

{"columns": ["Item smiles", "Value"],
 "data": [
  ["COc1c(C)c(OC(=O)c2c(C)c(C)c(OC(=O)c3c(C)c(Oc4c(C)c(C)c(C(=O)Oc5c(C)c(C)c(C(=O)O)c(OC)c5C)c(OC)c4C)c(O)c(C)c3O)c(C)c2OC)c(C)c(C)c1C(=O)O", "> 250 µM"]
]}
